Each item that follows carries a reported Ratio Ki.
species on record: Rattus norvegicus; test: Selectivity ratio of Ki for mu opioid receptor in Sprague-Dawley rat brain to Ki for delta opioid receptor in Sprague-Dawley rat brain
Where a SMILES comes first, the peptide text is derived from it. [ ]: non-standard residue; d: D form. The star is where a group is joined. Dmt = Cc1cc(O)cc(C)c1C[C@H](N)C(=O)O; Tic = O=C(O)[C@@H]1Cc2ccccc2CN1; NHPh = c1ccc(N*)cc1

>  <compound>
Cc1cc(O)cc(C)c1C[C@H](N)C(=O)N1Cc2ccccc2C[C@H]1C(=O)N[C@@H](CC(=O)O)C(=O)Nc1ccccc1

>  <Ratio Ki>
300

$$$$
>  <compound>
Cc1cc(O)cc(C)c1C[C@H](N)C(=O)N1Cc2ccccc2C[C@H]1C(=O)N[C@@H](CC(=O)O)c1nc2ccccc2[nH]1

>  <Ratio Ki>
122

$$$$
>  <compound>
Cc1cc(O)cc(C)c1C[C@H](N)C(=O)N1Cc2ccccc2C[C@H]1C(=O)N[C@H](CC(=O)O)c1nc2ccccc2n1C

>  <Ratio Ki>
169

$$$$
>  <compound>
Cc1cc(O)cc(C)c1C[C@H](N)C(=O)N1Cc2ccccc2C[C@H]1C(=O)NCC(=O)Nc1ccccc1 (H-[Dmt]-[Tic]-Gly-NHPh)

>  <Ratio Ki>
4

$$$$
